Measured values drawn from patent US12233161B1 for this set.

Each entry below carries its recorded Particle size (nm).
measurement_protocol: Particle size and PDI of nucleic acid lipid nanoparticle preparations by dynamic light scattering
Assay type: physicochemical
details: DMG-PEG2000:DSPC:Chol:compound 1.40:11.15:38.95:48.50, N/P 30
Output should be the measured figure followed by the unit it is expressed in.

1) CCCCCCC(CCCCCC)C(=O)OCCCCOC(=O)C(O)CN(CCN(C)CCN(CC(O)C(=O)OCCCCOC(=O)C(CCCCCC)CCCCCC)CC(O)C(=O)OCCCCOC(=O)C(CCCCCC)CCCCCC)CC(O)C(=O)OCCCCOC(=O)C(CCCCCC)CCCCCC (stereo not shown) : 119.00 nm
2) CCCCCCOCOCCCCCCOC(=O)C(O)CN(C)CCCN(C)CCCN(C)CC(O)C(=O)OCCCCCCOCOCCCCCC (stereo not shown) : 122.67 nm
3) CC/C=C\CCOCOCCCCCCOC(=O)C(O)CN(CCN(C)CCN(CC(O)C(=O)OCCCCCCOCOCC/C=C\CC)CC(O)C(=O)OCCCCCCOCOCC/C=C\CC)CC(O)C(=O)OCCCCCCOCOCC/C=C\CC (stereo not shown) : 146.13 nm

Please find the next compound below.
Record CCCCCCCCC(CCCCCC)C(=O)OCCCCOC(=O)C(O)CN(CCN(C)CCN(CC(O)C(=O)OCCCCOC(=O)C(CCCCCC)CCCCCCCC)CC(O)C(=O)OCCCCOC(=O)C(CCCCCC)CCCCCCCC)CC(O)C(=O)OCCCCOC(=O)C(CCCCCC)CCCCCCCC (stereo not shown) . Reported Particle size (nm): 91.43 nm
